- System: C. acnes (BNCC 336649)
- Condition Info: C. acnes; supplementary Table 5
Metric: Concentration with antimicrobial activity >50% (µg/mL)
# value in µg/mL; strip the unit string

Here are 2 sequences together with their reported answers.
- Seq: "LQLLKQFRKVLKKLS [AMP-13]"
  Experimental Target: "C. acnes (BNCC 336649)"
  Measured Result: 25
- Seq: "KIFWRVAKSLFKSY [AMP-30]"
  Experimental Target: "C. acnes (BNCC 336649)"
  Measured Result: 100

Record request: Concentration with antimicrobial activity >50% value, item KKLACRLWKWLAKKA [AMP-21]
12.5

Please answer likewise for RISSLLKRLAIKIK [AMP-16]
25

Please answer likewise for KRIGSILGRWLHLAK [AMP-2]
25

Please answer likewise for AKKALKAAAKIIKWL [AMP-19]
25

Please answer likewise for GKLKKIWKNFGKIIK [AMP-20]
25

Please answer likewise for GFKRIVHRLTKWLA [AMP-11]
12.5

Please answer likewise for WLSKTAKKLWNVFKS [AMP-15]
25

Please answer likewise for CKAVLRWVSRLKKL [AMP-39]
25

* * *

# Hemolysis Index values compiled below
- Test system: rabbit red blood cells (rRBCs)
- Protocol Summary: Hemolytic activity assay
- Format: cell-based
Ends that are not written are not given here.
Form: value (number only, do not type unit).

Here are 5 substances together with their reported answers.
- Substance: "KKWRKVLKLIKRLVG-NH2 [AMP-12]"
  Measured Result: 40
- Substance: "GIFKKITGKLFKWIK [AMP-5]"
  Measured Result: 30
- Substance: "LSKWLKKLGKLLAG [AMP-33]"
  Measured Result: 20
- Substance: "HFLGVVAKLVSKLF [AMP-38]"
  Measured Result: 16
- Substance: "KILGKLLKWASKIW [AMP-31]"
  Measured Result: 20

Record request: Hemolysis Index value, item KKIFKRIVKIIKRLL [AMP-29]
32

Please answer likewise for KRIVHRLLKKLHSLF [AMP-9]
30

Please answer likewise for AKRIVKLIKNFFRKL-NH2 [AMP-25]
60

Please answer likewise for GWAKRLATRLAKAIL-NH2 [AMP-27]
6.4

* * *

- System: human keratinocytes (HaCaT)
- Protocol Summary: HaCaT cell viability, CCK-8 assay
- Type: cell-based
Ends that are not written are not given here.
# Cytotoxic Index values compiled below
Form: value (number only, do not type unit).

- Substance: "KRIVHRLLKKLHSLF [AMP-9]"
  Experimental Target: "human keratinocytes (HaCaT)"
  Measured Result: 20
- Substance: "GIFKKITGKLFKWIK [AMP-5]"
  Experimental Target: "human keratinocytes (HaCaT)"
  Measured Result: 10
- Substance: "GWAKRLATRLAKAIL-NH2 [AMP-27]"
  Experimental Target: "human keratinocytes (HaCaT)"
  Measured Result: 12.8
- Substance: "KKWRKVLKLIKRLVG-NH2 [AMP-12]"
  Experimental Target: "human keratinocytes (HaCaT)"
  Measured Result: 16

GET /values?readout=Cytotoxic Index&system=human keratinocytes (HaCaT)&item= KILGKLLKWASKIW [AMP-31]
8

Please answer likewise for LSKWLKKLGKLLAG [AMP-33]
20

Please answer likewise for KKIFKRIVKIIKRLL [AMP-29]
16

Please answer likewise for AKRIVKLIKNFFRKL-NH2 [AMP-25]
20

Please answer likewise for HFLGVVAKLVSKLF [AMP-38]
10

* * *

- System: human keratinocytes (HaCaT)
- Protocol Summary: HaCaT cell viability, CCK-8 assay
- Type: cell-based
Ends that are not written are not given here.
Metric: HaCaT cell tolerance up to (µg/mL)
# value in µg/mL; strip the unit string

GET /values?readout=HaCaT cell tolerance up to&system=human keratinocytes (HaCaT)&item= GWAKRLATRLAKAIL-NH2 [AMP-27]
320

Please answer likewise for KKLACRLWKWLAKKA [AMP-21, AI designed peptide]
80

Please answer likewise for KRIVHRLLKKLHSLF [AMP-9]
160

Please answer likewise for LSKWLKKLGKLLAG [AMP-33]
80

Please answer likewise for HFLGVVAKLVSKLF [AMP-38]
80

Please answer likewise for GIFKKITGKLFKWIK [AMP-5]
80

Please answer likewise for GVFDWLKKLGKKLAG [AMP-14, AI designed peptide]
80

Please answer likewise for AKRIVKLIKNFFRKL-NH2 [AMP-25]
80

* * *

# Concentration with antimicrobial activity >50% values compiled below
- Tested on: C. acnes (BNCC 336649)
- Condition Info: C. acnes; supplementary Table 5
# value in µg/mL; strip the unit string

Here are 2 sequences together with their reported answers.
- Seq: "WFKAIPQAISALKKI [AMP-26]"
  Measured Result: 100
- Seq: "FLKKLRTAVLKLTKG [AMP-17]"
  Measured Result: 25

Record request: Concentration with antimicrobial activity >50% value, item KIAKRLAKKILNAI [AMP-10]
12.5

Please answer likewise for LLSLIRRTVARLKKA [AMP-18]
25

Please answer likewise for GLTLLKKFLHAAKKF [AMP-23]
25

Please answer likewise for KRLIKWLNVAKKVV [AMP-3]
100

Please answer likewise for GVFDWLKKLGKKLAG [AMP-14]
12.5

Please answer likewise for KKLAGLAWKALRKAK [AMP-6]
100

Please answer likewise for GIGALVKFLPKLFK [AMP-41]
25
